Provenance of the data: paper PMC10341573

IC50 values by entry
test system: MCF7; assay: MTT cell proliferation assay, MCF7; assay type: cell-based, human; conditions: Homo sapiens, MCF7, 72 h, MTT, 72 h; mean ± SD, triplicate; read-out: IC50 ± SD MCF7

Worked set:
{"compound": "O=C(NO)c1ccc(CSc2nc3ccccc3c(=O)n2-c2ccc(Cl)cc2)cc1 [Compound 5a]", "value_reported": "26.5 µM"}
{"compound": "Cc1cccc2nc(SCc3ccc(C(=O)NO)cc3)n(-c3ccccc3)c(=O)c12 [Compound 5p]", "value_reported": "> 50 µM"}
{"compound": "Cc1ccccc1-n1c(SCc2ccc(C(=O)NO)cc2)nc2cc(Cl)ccc2c1=O [Compound 5k]", "value_reported": "> 50 µM"}
{"compound": "Cc1ccc(-n2c(SCc3ccc(C(=O)NO)cc3)nc3ccccc3c2=O)cc1C [Compound 5f]", "value_reported": "> 50 µM"}
{"compound": "O=C(NO)c1ccc(CSc2nc3ccccc3c(=O)n2-c2cccc(Cl)c2)cc1 [Compound 5h]", "value_reported": "> 50 µM"}

May I ask what IC50 has been recorded for Cc1cccc2nc(SCc3ccc(C(=O)NO)cc3)n(-c3ccc(Cl)cc3)c(=O)c12 [Compound 5s] ?
> 50 µM

What does the data say about its IC50? Entry: Cc1ccc(-n2c(SCc3ccc(C(=O)NO)cc3)nc3ccccc3c2=O)cc1 [Compound 5c]
13.7 µM

# lookup: IC50 of CCc1ccc(-n2c(SCc3ccc(C(=O)NO)cc3)nc3ccccc3c2=O)cc1 [Compound 5d]
21.7 µM

// lookup IC50 for O=C(NO)c1ccc(CSc2nc3cc(Cl)ccc3c(=O)n2-c2ccccc2F)cc1 [Compound 5m]
> 50 µM

So what's the measured IC50 for this one? O=C(NO)c1ccc(CSc2nc3ccccc3c(=O)n2-c2ccccc2F)cc1 [Compound 5i]
> 50 µM

Entry C#Cc1cccc(Nc2ncnc3cc(OCCOC)c(OCCOC)cc23)c1 [Erlotinib, reference compound] : reported IC50 = ?
> 50 µM

Which IC50 value is on record for O=C(NO)c1ccc(CSc2nc3ccccc3c(=O)n2-c2ccc(Br)cc2)cc1 [Compound 5e] ?
44.6 µM

IC50 for O=C(NO)c1ccc(CSc2nc3cc(Cl)ccc3c(=O)n2-c2ccc(Cl)cc2)cc1 [Compound 5n] ?
> 50 µM

Which IC50 is listed for Cc1cccc(-n2c(SCc3ccc(C(=O)NO)cc3)nc3ccccc3c2=O)c1 [Compound 5g] ?
25.3 µM

Consider the compound CN1CCc2c(c3ccccc3n2Cc2ccc(C(=O)NO)cc2)C1 [Tubastatin, reference compound] and give its measured IC50.
12.7 µM

Which IC50 value is on record for Cc1ccc(-n2c(SCc3ccc(C(=O)NO)cc3)nc3cc(Cl)ccc3c2=O)cc1 [Compound 5l] ?
> 50 µM

Would you kindly share the measured IC50 for Cc1ccc(-n2c(SCc3ccc(C(=O)NO)cc3)nc3cc(Cl)ccc3c2=O)cc1C [Compound 5o] ?
> 50 µM

Which IC50 reading was recorded for the compound O=C(NO)c1ccc(CSc2nc3ccccc3c(=O)n2-c2ccccc2)cc1 [Compound 5b] ?
24.3 µM

Given the compound O=C(NO)c1ccc(CSc2nc3cc(Cl)ccc3c(=O)n2-c2ccccc2)cc1 [Compound 5j] , what is its reported IC50?
> 50 µM
